- System: CYP1A2
- method: Stability in human cryopreserved hepatocytes with or without CYP1A2 inhibitors (assays 1 to 3)
- condition.parameters: human, hepatocytes, t½, assay 2, furafylline 3 µM
property.measured: half-life at 1 µM (h)
Your answer is read as h, so omit the unit and give the number.

Query: Answer with the recorded half-life at 1 µM for the compound listed here: COC(=O)Nc1nc2cc(C(=O)c3ccc(F)cc3)ccc2[nH]1
Result: 13.6

* * *

- System: CYP1A2
- method: Stability in human cryopreserved hepatocytes with or without CYP1A2 inhibitors (assays 1 to 3)
- condition.parameters: human, hepatocytes, t½, assay 2, thiabendazole 10 µM
- Method: In each assay, the amount of test compound remaining at each time point was analysed by LC-MS/MS. The final incubation volume was 500 µL. […] A positive control compound, ethoxycoumarin, for CYP1A2 (as CYP1A2 substrate) was included. […] From a plot of In peak area ratio (compound peak area/internal standard peak area) against time, the gradient of the line was determined. Subsequently, half-life (t½) and intrinsic clearance (CLint) were calculated using the equations below: […]
property.measured: half-life at 1 µM (min)
Unit min implied. Number only.

Query: Tell me its half-life at 1 µM given COC(=O)Nc1nc2cc(C(=O)c3ccc(F)cc3)ccc2[nH]1 as the entry.
Result: 468

* * *

- method: Stability in human cryopreserved hepatocytes with or without CYP1A2 inhibitors (assays 1 to 3)
- condition.parameters: human, hepatocytes, intrinsic clearance, assay 1 (pre-screening assay), no inhibitor
- Procedure: In each assay, the amount of test compound remaining at each time point was analysed by LC-MS/MS. The final incubation volume was 500 µL. […] A positive control compound, ethoxycoumarin, for CYP1A2 (as CYP1A2 substrate) was included. […] From a plot of In peak area ratio (compound peak area/internal standard peak area) against time, the gradient of the line was determined. Subsequently, half-life (t½) and intrinsic clearance (CLint) were calculated using the equations below: […]
property.measured: hepatocyte CLint at 1 µM (µL/min/1e6 cells)
Your answer should be a plain number; it is taken to be in µL/min/1e6 cells.

Query: Read the entry COC(=O)Nc1nc2cc(C(=O)c3ccc(F)cc3)ccc2[nH]1 and write its reported hepatocyte CLint at 1 µM.
Result: 15.2

* * *

- system.tested: CYP2D6 (Homo sapiens)
- Construct: purchased
- Sequence (P10635 whole entry): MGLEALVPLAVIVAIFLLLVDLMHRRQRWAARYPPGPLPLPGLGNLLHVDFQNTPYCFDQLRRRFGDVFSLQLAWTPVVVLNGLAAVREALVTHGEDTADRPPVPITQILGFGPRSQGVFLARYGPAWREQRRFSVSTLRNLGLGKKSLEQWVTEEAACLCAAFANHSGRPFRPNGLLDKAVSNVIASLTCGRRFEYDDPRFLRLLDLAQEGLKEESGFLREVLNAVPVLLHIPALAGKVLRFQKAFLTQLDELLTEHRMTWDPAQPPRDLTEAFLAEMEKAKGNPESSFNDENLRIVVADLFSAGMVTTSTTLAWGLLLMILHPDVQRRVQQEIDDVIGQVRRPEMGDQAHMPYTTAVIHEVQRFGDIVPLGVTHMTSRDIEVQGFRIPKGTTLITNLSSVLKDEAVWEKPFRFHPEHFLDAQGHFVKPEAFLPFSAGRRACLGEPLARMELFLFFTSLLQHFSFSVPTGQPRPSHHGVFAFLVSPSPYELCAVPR
- method: Cytochrome P450 reaction phenotyping, recombinant CYP2D6
- Format: in vitro ADME
- condition.parameters: human, pH 7.4, 1 µM substrate, recombinant CYP2D6, NADPH; read-out: t½
property.measured: half-life at 1 µM

Query: # return half-life at 1 µM of COC(=O)Nc1nc2cc(C(=O)c3ccc(F)cc3)ccc2[nH]1 (system: CYP2D6 (Homo sapiens))
Result: ≥ 2.45 h

* * *

- Test system: CYP1A2
- method: Stability in human cryopreserved hepatocytes with or without CYP1A2 inhibitors (assays 1 to 3)
- condition.parameters: human, hepatocytes, t½, assay 3, cimetidine 300 µM
property.measured: half-life at 1 µM (h)
The reply should contain only the number, in h.

Query: Note half-life at 1 µM for the compound shown: COC(=O)Nc1nc2cc(C(=O)c3ccc(F)cc3)ccc2[nH]1 [Flubendazole]
Result: 2.52

* * *

- Tested on: CYP1A2
- method: Stability in human cryopreserved hepatocytes with or without CYP1A2 inhibitors (assays 1 to 3)
- condition.parameters: human, hepatocytes, CLint, assay 2, thiabendazole 10 µM
property.measured: hepatocyte CLint at 1 µM (µL/min/1e6 cells)
Kindly answer with a numeric value in µL/min/1e6 cells, unit omitted.

Query: Find the measured hepatocyte CLint at 1 µM of COC(=O)Nc1nc2cc(C(=O)c3ccc(F)cc3)ccc2[nH]1 and report it.
Result: 2.96
